Each record here notes measured log10 solubility kinetic.
# CONDITION_PARAMETERS: buffer; pH 7.4; 200.0 µM
Reminder: these figures are log10 of reported solubility kinetic, in µg/mL before transformation.

See these solved cases before continuing.
Ask: For CN(Cc1ccccc1)C(=O)Cc1ccccc1 , write its log10 solubility kinetic.
Result: 1.55

Ask: Give the value of log10 solubility kinetic reported for the following: Cc1nc(N)nc(Cl)c1Cc1ccc(Cl)cc1
Result: 0.56

Ask: Please look at this compound and report its log10 solubility kinetic: O=C(c1cc2cc(Br)ccc2s1)N1CCOCC1
Result: 1.66

Ask: Return value of log10 solubility kinetic for input COc1ccccc1CNC(=O)CS(=O)(=O)Cc1ccccc1 , no commentary.
Result: 1.62

Ask: Give me measured log10 solubility kinetic, please, for this compound: Cn1cccc1C(=O)OCc1cc(-c2ccco2)on1
Result: 1.14

Next:
Ask: Tell me log10 solubility kinetic reported for Cc1cc(NC(=O)C2=C(O)c3ccccc3S(=O)(=O)N2C)no1
Result: 1.53

====

# CONDITION_PARAMETERS: buffer; pH 7.4; 200.0 µM
# class assignment by measured solubility kinetic: low bin = under 7 µg/mL, mid bin = from 7 µg/mL up to 30 µg/mL, high bin = 30 µg/mL and over

Completed entries (count: 3):
Ask: Quick check: band for CC(NC(=O)C12CC3CC(C)(CC(C)(C3)C1)C2)c1ccncc1 (stereo not drawn)
Result: high bin

Ask: In plain terms, what class is CCOC(=O)C1(CCOC)CCN(C(=O)c2sccc2C)CC1 ?
Result: high bin

Ask: Band for the recorded solubility kinetic of O=C(CCc1nc(-c2ccccc2Cl)no1)Nc1cccnc1 ?
Result: high bin

Others:
Ask: Classify this molecule: Cc1ccc(S(=O)(=O)NCCc2ccncc2)cc1[N+](=O)[O-]
Result: high bin

====

# CONDITION_PARAMETERS: buffer; pH 7.4; 200.0 µM
QUANTITY_NAME: solubility kinetic (µg/mL)
I only need the number, in µg/mL, no unit after it.

Ask: Using the record for O=C(COc1ccccc1[N+](=O)[O-])Nc1ccc2c(c1)OCO2 , state its measured solubility kinetic.
Result: 1.7

More entries:
Ask: # return recorded solubility kinetic for entry CCOc1ccc2ccccc2c1C1NC(=O)N(C)C(C)=C1C(=O)OCCOC (stereo unspecified)
Result: 1.9

Ask: In one line, give reported solubility kinetic of the entry COc1ccc(C(=O)OCc2cc(=O)n3ccsc3n2)cc1F .
Result: 4

====

# CONDITION_PARAMETERS: buffer; pH 7.4; 200.0 µM
# binarize solubility kinetic: threshold 1 µg/mL inclusive, high side Met, low side Not met

The examples below pair each entry with its known result.
Ask: Would you say COc1ccccc1N1CCN(C(=O)CSc2nnc(C)n2C2CC2)CC1 shows solubility kinetic at minimum 1 µg/mL?
Result: Met

Ask: Please check the record CC(=O)Nc1ccc(NC(=S)NC(=O)c2ccc(-c3ccccc3)cc2)cc1 and state if its solubility kinetic is at or above 1 µg/mL.
Result: Not met

Ask: Confirm if solubility kinetic reported for the molecule O=C(O)C1CCCCC1C(=O)NCCCN1CCCC1=O (stereo unspecified) is 1 µg/mL or above.
Result: Met

Here's the next entry for you.
Ask: Confirm if solubility kinetic reported for the molecule CC1CCN(C(=O)/C(=C\c2ccco2)NC(=O)c2ccccc2)CC1 is 1 µg/mL or above.
Result: Met
